Values compiled from ChEMBL document CHEMBL1201862.

- System: SF-539
- METHOD: NCI tumour cell line growth inhibition, 48 h
Activity calls are given as the source filed them. Cut-off read from the data, not from the text of the source: active = GI50 up to about 1.1 µM and inactive = higher.
OUTCOME_MEASURE: GI50

Prompt line: Tell me reported GI50 for CNC(=O)C1(N)c2ccccc2C=Cc2ccccc21 , tested with SF-539.
Response line: > 100 µM (inactive)

Prompt line: Tell me reported GI50 for CN(C)CCCNc1c2c(nc3ccc(Cl)cc13)CCCC2 , tested with SF-539.
Response line: 13.5 µM (inactive)

Prompt line: Tell me reported GI50 for CC1(CNCc2ccccc2)CC(CCc2ccccc2)N(C(=O)c2ccc([N+](=O)[O-])cc2)C1Cc1ccc(O)cc1 (stereo not given) , tested with SF-539.
Response line: 17.1 µM (inactive)

Prompt line: Tell me reported GI50 for CCCCCNC(=O)C1C(=O)N(CCCCC)C(=O)/C1=N\N (stereo not given) , tested with SF-539.
Response line: 59.4 µM (inactive)

Prompt line: Tell me reported GI50 for C=C(Br)C(Br)(CCl)CCC(Cl)C(C)C.C=C(Cl)C(Br)(CCl)CCC(Cl)C(C)C (stereo not given) , tested with SF-539.
Response line: 1.94 µM (inactive)
